Molecular target: T1, APBA2_2, Q99767
T1 sequence (Q99767 654-744, limits assumed, looked up): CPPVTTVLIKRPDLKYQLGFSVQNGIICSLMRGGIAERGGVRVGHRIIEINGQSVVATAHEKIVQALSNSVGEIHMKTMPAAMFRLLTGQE
Assay: holdup assay
Set-up: key: below the threshold = too weak to quantify, mostly under pKd 3.1 to 4
Details: plain residues with an end cap or a label only (N-terminal biotin on a linker: ttds)
recorded_metric: pKd

FHPLGADSQV [SLC2A1, P11166]; below the threshold
NDPAWDETNL [ARHGEF7, Q14155;Q14155-1]; below the threshold
RHTTSTETAV [HPV30-E6, P36809]; below the threshold
SSLQSLETSV [ATP2B4, P23634]; 3.59
